Task for the reader: assign each of the following molecules its reported % Kill.
# Test system: MCF7 (MCF7/ATCC) cells
# test_name: Cell viability (cell kill) assay, nuclear counts
# Type: cell-based
# condition_info: MCF7; Table 12; 3 days
State just the number; it will be interpreted in %.

-- ask What does the data say about its % Kill? Entry: H1H6960N-DM1 (conjugate) VH: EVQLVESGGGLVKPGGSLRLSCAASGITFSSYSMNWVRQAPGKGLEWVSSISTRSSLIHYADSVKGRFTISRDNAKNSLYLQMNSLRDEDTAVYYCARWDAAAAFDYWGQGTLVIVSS VL: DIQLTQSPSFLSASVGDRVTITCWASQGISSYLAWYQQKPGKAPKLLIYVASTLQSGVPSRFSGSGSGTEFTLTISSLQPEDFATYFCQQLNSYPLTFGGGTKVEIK
-- reply 77

-- ask Can you check H1H6803P-DM1 (conjugate) VH: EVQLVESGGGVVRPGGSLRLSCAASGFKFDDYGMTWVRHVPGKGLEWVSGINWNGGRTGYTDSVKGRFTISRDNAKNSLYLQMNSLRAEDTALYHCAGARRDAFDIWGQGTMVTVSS VL: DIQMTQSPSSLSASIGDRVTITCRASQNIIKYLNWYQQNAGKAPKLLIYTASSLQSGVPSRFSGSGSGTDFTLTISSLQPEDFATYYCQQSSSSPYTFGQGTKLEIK next?
-- reply 60

-- ask Also, H1H6782P-DM1: anti-PRLR antibody H1H6782P conjugated to DM1 through an SMCC linker (conjugate) VH: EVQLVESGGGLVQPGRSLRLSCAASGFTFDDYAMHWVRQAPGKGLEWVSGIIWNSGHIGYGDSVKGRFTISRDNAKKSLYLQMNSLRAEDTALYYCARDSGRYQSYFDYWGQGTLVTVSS VL: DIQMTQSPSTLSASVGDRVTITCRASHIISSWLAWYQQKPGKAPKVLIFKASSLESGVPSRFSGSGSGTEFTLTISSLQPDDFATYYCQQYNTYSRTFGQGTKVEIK please.
-- reply 57

-- ask Let us now turn to H1H6765P-DM1: anti-PRLR antibody H1H6765P conjugated to DM1 through an SMCC linker (conjugate) VH: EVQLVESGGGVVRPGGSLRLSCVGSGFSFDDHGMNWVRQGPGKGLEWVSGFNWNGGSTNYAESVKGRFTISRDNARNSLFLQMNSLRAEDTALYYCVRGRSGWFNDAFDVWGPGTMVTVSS VL: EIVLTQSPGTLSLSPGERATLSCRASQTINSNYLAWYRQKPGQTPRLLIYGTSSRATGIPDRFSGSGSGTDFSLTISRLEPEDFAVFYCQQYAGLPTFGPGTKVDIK
-- reply 68

-- ask Lookup H1H6800P-DM1 (conjugate) VH: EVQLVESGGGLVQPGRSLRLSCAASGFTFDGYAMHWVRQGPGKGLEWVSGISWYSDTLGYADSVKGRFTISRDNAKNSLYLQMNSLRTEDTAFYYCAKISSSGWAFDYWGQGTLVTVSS VL: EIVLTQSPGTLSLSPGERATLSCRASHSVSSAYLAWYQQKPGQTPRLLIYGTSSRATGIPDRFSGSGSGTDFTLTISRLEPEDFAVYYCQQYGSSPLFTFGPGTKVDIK
-- reply 65

-- ask Further, for H1H6958N2-DM1: anti-PRLR antibody H1H6958N2 conjugated to DM1 through an SMCC linker (conjugate) VH: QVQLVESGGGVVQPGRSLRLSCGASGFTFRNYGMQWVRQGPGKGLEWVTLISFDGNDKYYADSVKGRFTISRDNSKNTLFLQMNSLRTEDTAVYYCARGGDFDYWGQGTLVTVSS VL: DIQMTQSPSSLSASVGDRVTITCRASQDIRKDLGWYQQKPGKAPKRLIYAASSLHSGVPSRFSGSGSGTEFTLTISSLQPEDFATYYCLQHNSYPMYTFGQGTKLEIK ?
-- reply 77

-- ask Also check H1H6959N2-DM1 (conjugate) VH: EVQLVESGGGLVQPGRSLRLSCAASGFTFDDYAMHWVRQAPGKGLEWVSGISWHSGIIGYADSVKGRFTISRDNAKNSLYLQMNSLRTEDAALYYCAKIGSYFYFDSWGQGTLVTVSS VL: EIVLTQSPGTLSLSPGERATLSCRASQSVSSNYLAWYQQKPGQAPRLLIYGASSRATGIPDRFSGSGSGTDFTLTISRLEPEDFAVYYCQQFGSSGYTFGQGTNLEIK
-- reply 82

-- ask Same question for H1H6793P-DM1 (conjugate) VH: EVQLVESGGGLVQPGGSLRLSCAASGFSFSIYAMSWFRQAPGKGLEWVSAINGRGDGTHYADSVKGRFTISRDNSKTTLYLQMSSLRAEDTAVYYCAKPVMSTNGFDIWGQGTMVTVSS VL: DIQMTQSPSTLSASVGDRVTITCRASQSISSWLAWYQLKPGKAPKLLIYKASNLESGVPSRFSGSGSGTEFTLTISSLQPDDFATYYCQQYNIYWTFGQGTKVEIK please.
-- reply 67

-- ask Same thing, different molecule: H1H6762P-DM1 (conjugate) VH: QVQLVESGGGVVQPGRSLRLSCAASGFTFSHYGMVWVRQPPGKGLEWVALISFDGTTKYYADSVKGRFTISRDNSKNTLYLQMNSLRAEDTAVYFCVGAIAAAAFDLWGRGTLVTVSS VL: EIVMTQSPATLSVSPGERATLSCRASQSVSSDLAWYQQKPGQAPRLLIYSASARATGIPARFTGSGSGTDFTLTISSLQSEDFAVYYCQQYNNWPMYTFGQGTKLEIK
-- reply 64

-- ask Also H1H6975N-DM1 (conjugate) VH: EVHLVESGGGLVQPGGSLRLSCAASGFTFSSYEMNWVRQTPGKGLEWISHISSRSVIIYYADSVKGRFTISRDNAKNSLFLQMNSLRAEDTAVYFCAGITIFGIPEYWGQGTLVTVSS VL: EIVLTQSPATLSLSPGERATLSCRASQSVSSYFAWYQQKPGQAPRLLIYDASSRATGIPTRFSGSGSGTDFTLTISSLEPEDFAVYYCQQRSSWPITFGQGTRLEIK , if possible.
-- reply 73
